# Test system: 743489-274-T-PDC complex spheroid growth;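 also: spheroids exposed to agents for 7 days before readout; 100% = DMSO vehicle control wells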
# testMethodNotes: Anticancer human tumor 743489-274-T-PDC patient-derived renal cell carcinoma cell line growth inhibition [AhR]
# protocolConditions: second compound 0.1 µM; first compound 0.0316 µM; stronger effect = lower value

molecule	viability, T/C / %
CC[C@@]1(O)C(=O)OCc2c1cc1n(c2=O)Cc2cc3c(CN(C)C)c(O)ccc3nc2-1 + Cc1cncc(-c2nc(NCCc3c[nH]c4ccccc34)c3ncn(C(C)C)c3n2)c1	93.1
CC1(C)CCC(CN2CCN(c3ccc(C(=O)NS(=O)(=O)c4ccc(NCC5CCOCC5)c([N+](=O)[O-])c4)c(Oc4cnc5[nH]ccc5c4)c3)CC2)=C(c2ccc(Cl)cc2)C1 + Cc1ccccc1N=Nc1ccc(NC(=O)c2ccnn2C)c(C)c1	91.9
CC1COCCN1c1cc(C2(S(C)(=N)=O)CC2)nc(-c2ccnc3[nH]ccc23)n1 (stereo not given) + CC(CO)NC(=O)c1cc(-c2ccc(Cl)cc2)nn(-c2cnn(C)c2)c1=O	97.5
CC1COCCN1c1cc(-c2ccnn2C)c2ccnc(-c3ccn[nH]3)c2n1 (stereo not given) + Cc1ccccc1N=Nc1ccc(NC(=O)c2ccnn2C)c(C)c1	93.9
CC1COCCN1c1cc(-c2ccnn2C)c2ccnc(-c3ccn[nH]3)c2n1 (stereo not given) + Cc1cncc(-c2nc(NCCc3c[nH]c4ccccc34)c3ncn(C(C)C)c3n2)c1	113

Source: PubChem BioAssay AID1919002
